Tested on: MDA-MB-231 breast cancer cells
ASSAY CONTEXT: 72 h
Square brackets hold non-standard residues; d marks the D form. Peptide text beside a SMILES is read from it.
REPORTED ENDPOINT: IC50 (µM)
Quick reminder: number only, in µM, skip the unit.

Please review the following examples before continuing.
COMPOUND	IC50 / µM
C[C@@H](O)[C@H](NC(=O)[C@H](Cc1ccc(O)cc1)NC(=O)[C@@H](NC(=O)[C@H](CCCCN)NC(=O)[C@@H](Cc1c[nH]c2ccccc12)NC(=O)[C@H](Cc1ccccc1)NC(=O)[C@H](Cc1ccccc1)NC(=O)[C@H](N)Cc1ccccc1)[C@@H](C)O)C(N)=O [DD8] (H-[dF]FF[dW]KTYT-NH2)	241
C[C@@H](O)[C@H](NC(=O)[C@H](Cc1ccc(O)cc1)NC(=O)[C@@H](NC(=O)[C@H](CCCCN)NC(=O)[C@@H](Cc1c[nH]c2ccccc12)NC(=O)[C@H](Cc1ccc(O)cc1)NC(=O)[C@H](Cc1ccc(O)cc1)NC(=O)[C@H](N)Cc1ccccc1)[C@@H](C)O)C(N)=O [D61] (H-[dF]YY[dW]KTYT-NH2)	798

Proceeding to the next compound to report its IC50.
May I ask what IC50 has been recorded for C[C@@H](O)[C@H](NC(=O)[C@H](Cc1ccc(O)cc1)NC(=O)[C@@H](NC(=O)[C@H](CCCCN)NC(=O)[C@@H](Cc1c[nH]c2ccccc12)NC(=O)[C@H](Cc1ccc(O)cc1)NC(=O)[C@H](Cc1ccc(O)cc1)NC(=O)[C@H](N)Cc1ccc(O)cc1)[C@@H](C)O)C(N)=O [D91] (H-[dY]YY[dW]KTYT-NH2) ?
849

---

TEST PROTOCOL: in vitro
ASSAY CONTEXT: mouse
Square brackets hold non-standard residues; d marks the D form. Peptide text beside a SMILES is read from it.
REPORTED ENDPOINT: IC50 at 24 h

COMPOUND	IC50 at 24 h
C[C@@H](O)[C@H](NC(=O)[C@H](Cc1ccc(O)cc1)NC(=O)[C@@H](NC(=O)[C@H](CCCCN)NC(=O)[C@@H](Cc1c[nH]c2ccccc12)NC(=O)[C@H](Cc1ccc(O)cc1)NC(=O)[C@H](Cc1ccc(O)cc1)NC(=O)[C@H](N)Cc1ccc(O)cc1)[C@@H](C)O)C(N)=O [D91] (H-[dY]YY[dW]KTYT-NH2)	975 µM

Now consider the entry below.
Quick check: IC50 at 24 h of C[C@@H](O)[C@H](NC(=O)[C@H](Cc1ccccc1)NC(=O)[C@@H](NC(=O)[C@H](CCCCN)NC(=O)[C@@H](Cc1c[nH]c2ccccc12)NC(=O)[C@H](Cc1ccccc1)NC(=O)[C@H](Cc1ccccc1)NC(=O)[C@H](N)Cc1ccccc1)[C@@H](C)O)C(N)=O [BIM-23052, D-Phe-Phe-Phe-D-Trp-Lys-Thr-Phe-Thr-NH2] (H-[dF]FF[dW]KTFT-NH2) ?
483 µM
